Target: T1, RSM, RECQ4(348-388) (Homo sapiens, UniProt O94761)
T1 chain: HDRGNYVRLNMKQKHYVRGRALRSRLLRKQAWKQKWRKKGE
Assay: NMR 2D lineshape analysis (competition with RPA32C); 150 mM NaCl, pH 6.0, 298 K; kon 1.5e10 M-1 s-1; FA: 25 mM KPO4 pH 6.5, 70 mM KCl (or 500 mM NaCl), 25 C; ITC: same low-salt buffer, 30 C; NMR dsDNA: 50 mM NaPO4 pH 6.0, 150 mM NaCl, 298 K; NMR G4: 25 mM KPO4
Settings: protein: recombinant; tags: N-terminal His6-TEV construct (pET-M11); label: 5' FITC on strand 1 (FA); blunt
Parameter Measured: pKd
Entry type: numeric. Quantity: pKd, the -log10 of concentration in molar units.

*Q* Recorded pKd for ds10 (dsDNA) DNA 1: CAGCGCTCGG DNA 2: CCGAGCGCTG , please?
*A* 5.20

Recorded values, source paper PMC10598209.
